Where these numbers come from: ChEMBL document CHEMBL1201862

System: HL-60
Assay: NCI tumour cell line growth inhibition, 48 h
Activity calls are given as the source filed them. No stated cut-off is given here; in the data, active = GI50 up to about 1.1 µM and inactive = higher.
measuredAttribute: GI50

Give the reported GI50 for this molecule. O=C(NO)c1coc2ccccc2c1=O
75.2 µM (inactive)

Provide GI50 value for the following molecule: CCC(CO)COC(=O)/C=C/C(=O)OCC(CC)CO (configuration not stated)
22.1 µM (inactive)

Give the measured GI50 for Cc1ccc2c(c1)C(O)(c1ccccc1)CCS2 (configuration not stated)
28.2 µM (inactive)

Read the entry O=C(Nc1cccc(O)c1)C(=O)C(C(=O)c1ccc(Cl)c(Cl)c1)C1OC(=O)c2ccccc21 (configuration not stated) and write its reported GI50.
12.9 µM (inactive)

Return value of GI50 for input CC(O)c1cc2c(s1)C(=O)c1scc(C(C)O)c1C2=O (configuration not stated) , no commentary.
0.646 µM (active)

Give recorded GI50. CC(=O)Nc1ccc2c3c(cc(O)c2c1)N(C(=O)CCCCCCC(=O)N1CC(CCl)c2c1cc(O)c1cc(NC(C)=O)ccc21)CC3CCl (configuration not stated)
< 0.01 µM (active)

Provide measured GI50 value, entry: c1ccc2c(c1)N=C(c1cccc3ccccc13)CC(c1ccc3c(c1)OCO3)S2 (configuration not stated)
> 100 µM (inactive)

Note down GI50 recorded for Nc1ccc2[nH]cc(CCC(=O)O)c2c1
27.3 µM (inactive)

Specify reported GI50 for the molecule shown: COc1cc(Cc2ccc3c(c2C#N)N(C)c2ccccc2S3)cc(OC)c1OC
13.7 µM (inactive)

Supply GI50 value. Item: N#CCCOCN(CO)c1nc(N(CO)COCCC#N)nc(N(CO)COCCC#N)n1
17.7 µM (inactive)

Give the value of GI50 reported for the following: Cn1c(=O)ccc2cc(C(=O)c3ccccc3)ccc21
23.6 µM (inactive)

Please give measured GI50 of the following entry: N#Cc1cccc(Nc2ccccc2SSc2ccccc2Nc2cccc(C#N)c2)c1
4.76 µM (inactive)

Note GI50 for the molecule shown: CN1CCN(CCn2c3c4ccccc4ccc3c3oc(=O)c4ccccc4c32)CC1
2.15 µM (inactive)

Read off the recorded GI50 for Cc1ccc(NC(=O)c2ccc(OP(=O)(O)Nc3ccc(C)cc3)cc2)cc1
> 100 µM (inactive)

Identify GI50 associated with the molecule Cc1ccc(S(=O)(=O)NC(=O)C2=C3SCCN3C(=O)N(S(=O)(=O)c3ccc(C)cc3)C2c2ccccc2)cc1 (configuration not stated)
43.2 µM (inactive)

Tell us which GI50 value is on record for OC(COc1ccccc1)CN1CCCCC1 (configuration not stated)
> 100 µM (inactive)

Give the reported value of GI50 for this record: CO[C@H]1O[C@@H]2OC3(C)CCC4[C@H](C)CCC([C@H]1C)[C@]42OO3 (some centres not stated)
1.32 µM (inactive)

Annotate the molecule c1cc(-c2cnc(-c3ccc4c(c3)CCCO4)o2)ccn1 with its measured GI50.
4.33 µM (inactive)

Report GI50, nothing else, for this molecule: COc1cc(CSc2ccc(O)cc2)cc(OC)c1OC
20.4 µM (inactive)

Given the molecule COc1cc2c(/C=C3/C(=O)Nc4ccc(Cl)cc43)c(Cl)n(Cc3ccccc3)c2cc1C , write its reported GI50.
3.93 µM (inactive)

Provide GI50 value for the following molecule: C=C1C(=O)OC2C(C)C3C=CC(=O)[C@@]3(C)C(OC(=O)/C(C)=C/C)C1[C@@H]2OC(C)=O (some centres not stated)
0.327 µM (active)

Give the measured GI50 for C=C1C(=O)OC2CC(C)C(/C=C/C(C)=O)=CCC12 (configuration not stated)
33.1 µM (inactive)

Answer with the recorded GI50 of c1ccc(COc2ccc3[nH]c4c5c6ccccc6nc-5c[nH]c4c3c2)cc1 only.
2.19 µM (inactive)

Provide one value: measured GI50 of CCN(CC)CC(C)(C)C(=O)/C=C/c1ccc(/C=C/C(=O)C(C)(C)CN(CC)CC)cc1
0.0499 µM (active)

Give me measured GI50, please, for this molecule: Cc1cc(Cl)ccc1OCC(=O)Nc1nc(N)nc(N)n1
> 100 µM (inactive)

Give GI50 for NCCSC1(O)C(=O)c2ccccc2-c2ccccc21 (configuration not stated)
1.09 µM (active)

Look up and report measured GI50 for this entry: CN1C/C(=C\c2ccccc2[N+](=O)[O-])C(=O)/C(=C/c2ccccc2[N+](=O)[O-])C1
0.0796 µM (active)

For CSC(=N)N1N=C2c3ccccc3CC[C@@H]2[C@@H]1c1ccccc1 , write its GI50.
10.6 µM (inactive)

# return recorded GI50 for input CCOP(=O)(OCC)C1CCCOC1=O (configuration not stated)
> 100 µM (inactive)

Indicate its recorded GI50; the molecule in question is C(=C\C(Sc1ccccc1)c1ccccc1)/NNC1=NN=C(c2ccccc2)C(c2ccccc2)N1 (configuration not stated)
15.2 µM (inactive)

// Input: CC[C@]12C=CCN3CCC4(c5cc([C@@]6(C(=O)OC)CC7CN(CCc8c6[nH]c6ccccc86)C[C@@H]6CCCC[C@H]76)c(OC)cc5N(C)C4[C@](O)(C(=O)OC)C1OC(C)=O)[C@@H]32 (some centres not stated) . Output its GI50 only.
< 0.01 µM (active)

For the molecule COc1ccc(NC(=O)C2C(=O)N(c3ccc(OC)cc3)C(=O)/C2=N/O)cc1 (configuration not stated) , report GI50.
> 100 µM (inactive)

Please give the documented GI50 of CS(=O)(=O)C(C#N)c1nc2ccccc2nc1Cl (configuration not stated)
> 100 µM (inactive)

Consider the molecule Oc1cc(-c2cccc(Cl)c2)nc2cc3c(cc12)OCO3 . State its measured GI50.
0.157 µM (active)

Note GI50 for the molecule shown: CC(=O)N1CCC2(C=Nc3ccccc32)CC1
> 100 µM (inactive)

Supply GI50 value. Item: COc1cc2cc[n+](C)c(Cc3ccc(Oc4cc(Cc5c6cc(OC)c(OC)cc6cc[n+]5C)ccc4OC)cc3)c2cc1OC
45.2 µM (inactive)

Return GI50 for the following molecule: CC(=O)N1C(=O)C(=O)c2cc(Cl)ccc21
> 100 µM (inactive)

Report measured GI50; entry is CCN(/N=C1\CC2C=CCN(C2)C(=O)Cc2c1[nH]c1ccccc21)S(=O)(=O)c1ccc(C)cc1 (configuration not stated)
73.1 µM (inactive)

Given NNC(=S)N1CCN(C(=S)NN)CC1 , respond with its GI50.
32.4 µM (inactive)

Return GI50 for the following molecule: CCOC(=O)C(C(=O)OCC)C1C=CCC2c3ccccc3COCC21 (configuration not stated)
22.4 µM (inactive)

Read the entry OC1CN(OC/C=C/c2ccccc2)CC(O)C1O (configuration not stated) and write its reported GI50.
> 100 µM (inactive)

Give me measured GI50, please, for this molecule: NNc1nnc(CCCCCCCCc2nnc(NN)n2N)n1N
24.4 µM (inactive)

###

Tested on: SN12C
Test: NCI tumour cell line growth inhibition, 48 h
Active and inactive are the calls of the source. No stated cut-off is given here; in the data, active = GI50 up to about 1.1 µM and inactive = higher.
Hi there, use one of these labels in your reply, thanks! active, inactive

Each compound tested received a call. Report the one for O=C(c1ccccc1F)c1c(NCc2ccccc2)c(=O)c1=O .
inactive

Hi, do you know how CCN(CC)CC(C)(C)C(=O)/C=C/c1ccc(/C=C/C(=O)C(C)(C)CN(CC)CC)cc1 came out in this test?
active

Per the records of this test, what outcome belongs to Cn1c(=O)c2c3ccccc3c(C(=O)c3ccccc3)n2c2ccccc21 ?
inactive

I would be grateful if you could indicate the recorded call for CC1(C)C2CC(=O)C1(C)C(OCc1ccccc1)C2 (configuration not stated) .
inactive

Per the assay record, what outcome was assigned to Cn1c(=O)cc(NCCc2ccccc2)[nH]c1=O ?
inactive

Look up the recorded call for COc1ccc(P2(=S)Oc3ccccc3-c3ccccc3O2)cc1 in this test.
active

For COC(=O)C(/C(=N/NC(N)=O)C(=O)Nc1c(C)cccc1C(C)(C)C)c1nc2ccc(Cl)cc2nc1O (configuration not stated) , what call appears in the results of this test?
inactive

###

Provide the reported GI50 of each item.
System: IGROV-1
Assay: NCI tumour cell line growth inhibition, 48 h
Activity calls are given as the source filed them. Rule as the data show it: active = GI50 up to about 1.1 µM and inactive = higher. Residues, ends and D or L forms follow the SMILES beside them. *: point of attachment. Bn = c1ccc(C*)cc1

For the compound C#C[C@]1(O)CCCC2=CC(=O)CC[C@@]21C , give its reported GI50.
> 100 µM (inactive)

Fill in GI50 for record CCCCCCCCCC[C@@H](O)[C@@H]1CC[C@@H]([C@@H]2CC[C@@H]([C@@H](O)CCCCCCCCCC[C@H](O)CC3=CC(C)OC3=O)O2)O1 (some centres not stated)
3.48 µM (inactive)

Identify measured GI50 associated with COc1cc2c(cc1Oc1ccc(OC)c3c1CC1c4c(cc(OC)c(OC)c4-3)CCN1C)CC1c3c(cc(OC)c(OC)c3-2)CCN1C (configuration not stated)
3.86 µM (inactive)

Please report GI50 for the following compound: CN(C)C(n1cc2c(c1)-c1ccc(Cl)cc1C(c1ccccc1F)=NC2)n1cc2c(c1)-c1ccc(Cl)cc1C(c1ccccc1F)=NC2
> 100 µM (inactive)

Provide GI50 value for the following compound: Cc1ccc(NC(=S)C#N)cc1Cl
17.1 µM (inactive)

Tell me GI50 reported for CCN(CC)CC(C)(C)C(=O)/C=C/c1ccc(/C=C/C(=O)C(C)(C)CN(CC)CC)cc1
1.27 µM (inactive)

Give GI50 for COC(=O)C(CC(C)C)NC(=O)C(N)Cc1ccc(OCc2ccccc2)cc1 (configuration not stated) (H-Tyr(Bn)-Leu-OMe; configuration not given here)
> 10 µM (inactive)

State its GI50: CO/N=C(/C(=O)Nc1c[n+](CC(=O)[O-])cs1)c1csc(N)n1
> 100 µM (inactive)

Look up GI50 of OC1=C2c3ccccc3NC2Oc2cc(F)ccc21 (configuration not stated) and report it.
21.7 µM (inactive)

# return recorded GI50 for entry Cc1cc(O)c(C(C)C)cc1NC(=O)Nc1cccc2ccccc12
14.3 µM (inactive)

Provide one value: measured GI50 of N#Cc1ccc2oc3ccc(C#N)cc3c(=O)c2c1
32 µM (inactive)

Output GI50 of c1ccc(COc2ccc3[nH]c4c5c6ccccc6nc-5c[nH]c4c3c2)cc1
13.8 µM (inactive)

Give the reported GI50 for this compound. CC(=O)N1C(=O)C(=O)c2cc(Cl)ccc21
> 100 µM (inactive)

Hello, please tell me recorded GI50 for this one: O=C1c2ccccc2C(=O)c2c1nc1ccccc1c2-c1cncc(-c2c3c(nc4ccccc24)C(=O)c2ccccc2C3=O)c1
0.0596 µM (active)

Return GI50 for the following compound: NCCc1ccc(S(=O)(=O)O)cc1[N+](=O)[O-]
> 100 µM (inactive)

# return recorded GI50 for input Cn1nc2ccc3nccc(NCCNCCO)c3c2n1
68.4 µM (inactive)

Quick one: give measured GI50 for Cc1cc(S(=O)(=O)N=C2NCC(C)(C)CN2)c(S)cc1Cl
38.9 µM (inactive)

Provide only the value of recorded GI50 for O=C(NCC(O)COc1ccccc1)c1ccccc1O (configuration not stated)
> 100 µM (inactive)

Item OC1CN(OC/C=C/c2ccccc2)CC(O)C1O (configuration not stated) : provide GI50
> 100 µM (inactive)

Determine its reported GI50: CCCC1c2c(ccc3ccccc23)Oc2ccc3ccccc3c21
50.7 µM (inactive)

Please give the documented GI50 of O=C(Nc1cccc(O)c1)C(=O)C(C(=O)c1ccc(Cl)c(Cl)c1)C1OC(=O)c2ccccc21 (configuration not stated)
22.2 µM (inactive)

Return GI50 (reported value) for this compound: N#Cc1cc([N+](=O)[O-])ccc1NC(=O)C(=O)Nn1c(S)nc2ccccc2c1=O
> 100 µM (inactive)

Return GI50 (reported value) for this compound: Cc1ccc(NC(=O)C2C3CCC(O3)C2C(=O)O)cc1 (configuration not stated)
> 100 µM (inactive)

Report GI50 for CCC(=N\NC(N)=S)/C(C)=N/O
> 100 µM (inactive)

Using known records, supply GI50 for CCN(CC)CCNc1ccc2ncn3c4c(OC)cccc4c(=O)c1c23
5.41 µM (inactive)

Specify measured GI50 for Cc1nn(-c2ccccc2)c(-c2ccccc2[N+](=O)[O-])c1CC#N .
> 100 µM (inactive)

Supply recorded GI50 for C=C1CC2(CC(c3ccccc3Cl)OC(c3ccccc3Cl)C2)OC1=O (configuration not stated) here.
2.02 µM (inactive)

Check the records and state GI50 for O=C(Nc1cccc(Cl)c1)c1cc2cc(/N=N/c3ccc(Br)cc3)ccc2oc1=O
51.5 µM (inactive)

Could you please provide reported GI50 for c1ccc(CCN2CCOCC2)nc1 ? Thanks!
> 100 µM (inactive)

Consider the compound CC(NCc1c(O)ccc2c(-c3ccccc3)cc(=O)oc12)C(=O)O (configuration not stated) and give its recorded GI50.
> 100 µM (inactive)

Look up GI50 of CC(C)(/N=N/C(C)(C)C(=N)N)C(=N)N and report it.
> 100 µM (inactive)

Look up GI50 of CCOC(=O)C1=C(C)N(Cc2ccccc2)C2(O)C=CC(O)=C3C(=O)c4ccccc4C(=O)C312 (configuration not stated) and report it.
4.16 µM (inactive)

Give GI50 for N#CC(C(=O)C(=O)Nc1ccccc1)c1ccccc1 (configuration not stated)
> 100 µM (inactive)

Provide only the value of recorded GI50 for COC(=O)CCc1cc(OC)c2oc(-c3ccc(OC)c(OC)c3)c(CO)c2c1
> 100 µM (inactive)

Identify measured GI50 associated with COc1ccc(P2(=S)Oc3ccccc3-c3ccccc3O2)cc1
0.394 µM (active)

Fill in GI50 for record CCN(C(=S)N[C@@H](Cc1ccccc1)C(=O)N[C@@H](CC(C)C)C(=O)OC)c1ccccc1
50.4 µM (inactive)

Using the record for Cc1c(C(=O)C/C(=N/NC(=O)C[n+]2ccccc2)C(=O)Nc2ccccc2)[n+]([O-])c2ccccc2[n+]1[O-] , state its measured GI50.
> 100 µM (inactive)

Give a short answer stating reported GI50 for COC(=O)C(/C(=N/NC(N)=O)C(=O)Nc1c(C)cccc1C(C)(C)C)c1nc2ccc(Cl)cc2nc1O (configuration not stated) .
> 100 µM (inactive)

Using the record for COc1ccccc1N/C(=C\C(=O)C(=O)NC12CC3CC(CC(C3)C1)C2)c1ccccc1 , state its measured GI50.
> 10 µM (inactive)

Kindly indicate its recorded GI50. Item: COc1cc2c(c(OC3OC(CO)C(O)C(O)C3O)c1)C(=O)CC(c1ccc(O)cc1)O2 (configuration not stated)
> 100 µM (inactive)

Provide GI50 value for the following compound: CO[C@H]1O[C@@H]2OC3(C)CCC4[C@H](C)CCC([C@H]1C)[C@]42OO3 (some centres not stated)
> 100 µM (inactive)

For the compound C[Si]12OCCCN(CCO1)CCO2 , report GI50.
> 100 µM (inactive)
